- System: Huh-7 cell line
- PROCEDURE TEXT: Huh-7 cell confluency by alamarBlue assay during hepatic-stage test
- Format: cell-based
- MEASUREMENT CONTEXT: human, 46 h, 10 µM, pH 7
QUANTITY NAME: CELL CONFLUENCY Ø screening

[[record]]
compound = "COc1ccccc1C(=O)OC1CN2Cc3cc4c(cc3C13C=CC(OC)CC23)OCO4 (stereo not drawn) [29e, 11-O-(2-methoxybenzoyl)haemanthamine]"
value_reported = 167.5

[[record]]
compound = "COc1c2c(cc3c1OCO3)[C@]13C=C[C@H](OC)C[C@H]1N(C2)C[C@H]3OC(=O)c1ccc([N+](=O)[O-])cc1Cl [28s, 11-O-(2-Chloro-4-nitrobenzoyl)ambelline]"
value_reported = 77.1

[[record]]
compound = "COc1c2c(cc3c1OCO3)[C@]13C=C[C@H](OC)C[C@H]1N(C2)C[C@H]3OC(=O)c1cccc(C)c1 [28f, 11-O-(3-Methylbenzoyl)ambelline]"
value_reported = 93.35

[[record]]
compound = "COc1c2c(cc3c1OCO3)[C@]13C=C[C@H](OC)C[C@H]1[N@](C2)C[C@H]3OC(C)=O [28a, 11-O-Acetylambelline]"
value_reported = 93.33

[[record]]
compound = "COc1c2c(cc3c1OCO3)[C@]13C=C[C@H](OC)C[C@H]1N(C2)C[C@H]3OC(=O)c1ccc(C)cc1 [28g, 11-O-(4-Methylbenzoyl)ambelline]"
value_reported = 93.96

[[record]]
compound = "COc1ccc(C(=O)OC2CN3Cc4cc5c(cc4C24C=CC(OC)CC34)OCO5)cc1OC (stereo not drawn) [29h, 11-O-(3,4-dimethoxybenzoyl)haemanthamine]"
value_reported = 100.3


====

- Test system: Huh-7 cell line
- PROCEDURE TEXT: Huh-7 cell confluency by alamarBlue assay during hepatic-stage test
- Assay type: cell-based
- MEASUREMENT CONTEXT: human, 46 h, 1 µM, pH 7
// label = satisfied if CELL CONFLUENCY Ø screening is not less than 100, otherwise not satisfied

[[record]]
compound = "COc1ccc(C(=O)OC2CN3Cc4cc5c(cc4C24C=CC(OC)CC34)OCO5)cc1 (stereo not drawn) [29g, 11-O-(4-methoxybenzoyl)haemanthamine]"
test_target = "Huh-7 cell line"
assigned_label = "not satisfied"

[[record]]
compound = "COC1C=CC23c4cc5c(cc4CN(CC2OC(=O)c2ccc(C)cc2)C3C1)OCO5 (stereo not drawn) [29d, 11-O-(4-methylbenzoyl)haemanthamine]"
test_target = "Huh-7 cell line"
assigned_label = "satisfied"

[[record]]
compound = "COc1c2c(cc3c1OCO3)[C@]13C=C[C@H](OC)C[C@H]1N(C2)C[C@H]3OC(=O)c1cccc([N+](=O)[O-])c1 [28p, 11-O-(3-Nitrobenzoyl)ambelline]"
test_target = "Huh-7 cell line"
assigned_label = "not satisfied"

[[record]]
compound = "COc1ccc(C(=O)O[C@@H]2CN3Cc4c(cc5c(c4OC)OCO5)[C@@]24C=C[C@H](OC)C[C@@H]34)cc1OC [28l, 11-O-(3,4-Dimethoxybenzoyl)ambelline]"
test_target = "Huh-7 cell line"
assigned_label = "not satisfied"

[[record]]
compound = "COc1cc(C(=O)O[C@@H]2CN3Cc4c(cc5c(c4OC)OCO5)[C@@]24C=C[C@H](OC)C[C@@H]34)cc(OC)c1OC [28n, 11-O-(3,4,5-Trimethoxybenzoyl)ambelline]"
test_target = "Huh-7 cell line"
assigned_label = "not satisfied"

[[record]]
compound = "COc1ccccc1C(=O)OC1CN2Cc3cc4c(cc3C13C=CC(OC)CC23)OCO4 (stereo not drawn) [29e, 11-O-(2-methoxybenzoyl)haemanthamine]"
test_target = "Huh-7 cell line"
assigned_label = "satisfied"

[[record]]
compound = "COc1c2c(cc3c1OCO3)[C@]13C=C[C@H](OC)C[C@H]1[N@](C2)C[C@H]3OC(C)=O [28a, 11-O-Acetylambelline]"
test_target = "Huh-7 cell line"
assigned_label = "not satisfied"

[[record]]
compound = "COc1c2c(cc3c1OCO3)[C@]13C=C[C@H](OC)C[C@H]1N(C2)C[C@H]3OC(=O)c1ccccc1 [28e, 11-O-Benzoylambelline]"
test_target = "Huh-7 cell line"
assigned_label = "not satisfied"

[[record]]
compound = "CCCCC(=O)O[C@@H]1CN2Cc3c(cc4c(c3OC)OCO4)[C@@]13C=C[C@H](OC)C[C@@H]23 [28d, 11-O-Pentanoylambelline]"
test_target = "Huh-7 cell line"
assigned_label = "not satisfied"

[[record]]
compound = "COC1C=CC23c4cc5c(cc4CN(CC2OC(=O)c2cccc(C)c2)C3C1)OCO5 (stereo not drawn) [29c, 11-O-(3-methylbenzoyl)haemanthamine]"
test_target = "Huh-7 cell line"
assigned_label = "satisfied"

[[record]]
compound = "COc1c2c(cc3c1OCO3)[C@]13C=C[C@H](OC)C[C@H]1N(C2)C[C@H]3OC(=O)c1ccc(C)c([N+](=O)[O-])c1 [28r, 11-O-(4-Methyl-3-nitrobenzoyl)ambelline]"
test_target = "Huh-7 cell line"
assigned_label = "not satisfied"

[[record]]
compound = "COc1c2c(cc3c1OCO3)[C@]13C=C[C@H](OC)C[C@H]1N(C2)C[C@H]3OC(=O)C(C)C [28c, 11-O-Isobutanoylambelline]"
test_target = "Huh-7 cell line"
assigned_label = "not satisfied"

[[record]]
compound = "COc1cc(OC)cc(C(=O)OC2CN3Cc4cc5c(cc4C24C=CC(OC)CC34)OCO5)c1 (stereo not drawn) [29i, 11-O-(3,5-dimethoxybenzoyl)haemanthamine]"
test_target = "Huh-7 cell line"
assigned_label = "satisfied"

[[record]]
compound = "COc1cc(OC)cc(C(=O)O[C@@H]2CN3Cc4c(cc5c(c4OC)OCO5)[C@@]24C=C[C@H](OC)C[C@@H]34)c1 [28m, 11-O-(3,5-Dimethoxybenzoyl)ambelline]"
test_target = "Huh-7 cell line"
assigned_label = "not satisfied"

[[record]]
compound = "COc1c2c(cc3c1OCO3)[C@]13C=C[C@H](OC)C[C@H]1N(C2)C[C@H]3OC(=O)c1cccc(C)c1 [28f, 11-O-(3-Methylbenzoyl)ambelline]"
test_target = "Huh-7 cell line"
assigned_label = "satisfied"

[[record]]
compound = "COc1ccccc1C(=O)O[C@@H]1CN2Cc3c(cc4c(c3OC)OCO4)[C@@]13C=C[C@H](OC)C[C@@H]23 [28i, 11-O-(2-Methoxybenzoyl)ambelline]"
test_target = "Huh-7 cell line"
assigned_label = "satisfied"


Ref: paper PMC10056443
